# Organism: Rattus norvegicus
# measurement description: DrugMatrix - Regimen: Daily Repeat
# Assay type: toxicity, organism-based, Sprague-Dawley
# Design: regimen Daily Repeat, gender Male, age 6-8 weeks
# condition parameters: in vivo, iv, 0 mg/kg, 120 h, tissue Plasma, dose level Control, time 5 day, vehicle 100 % SALINE
The entries below come with measured BLOOD UREA NITROGEN values attached.
Numeric only. Scale: mg/dL

Look over these answered cases.
N=C(N)c1ccc(OCCCCCOc2ccc(C(=N)N)cc2)cc1 : 19.5
C[N+](C)(C)CCOC(=O)CCC(=O)OCC[N+](C)(C)C.[Cl-].[Cl-] [SUCCINYLCHOLINE CHLORIDE] : 19.5
O=c1[nH]c(=O)n([C@H]2C[C@H](O)[C@@H](CO)O2)cc1F : 17.67
O=C(O)P(=O)(O)O : 18.83

For the next question, use this molecule.
Check the records and state BLOOD UREA NITROGEN for COc1cccc2c1C(=O)c1c(O)c3c(c(O)c1C2=O)C[C@@](O)(C(C)=O)C[C@@H]3O[C@H]1C[C@H](N)[C@H](O)[C@H](C)O1
16.17
